procedure-text: chemical genetic growth profiling, strain panel (AID 1159580);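 further: tested at 20 µM; growth read once vehicle control cultures reached saturation at 30 °C; lower values mean less growth of the strain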
run-conditions: S. cerevisiae deletion strains, growth OD, locus YPL256C, strain CLN2
Out of some 5,500 compounds screened, about 2,000 (36%) were called active. Roughly 18% stayed inconclusive and do not appear here. No stated cut-off is given here; in the data, active means normalized growth mostly below about 0.91 (no sharp cut-off); inconclusive means no clear call, values can overlap the other calls; inactive means mostly above about 0.92. The list shows a part of the results.
Pick from yes = active, no = inactive when you respond.

Task item: Kindly provide the recorded test outcome for the following compound: O=c1[nH]c(=O)n(C2C[C@H](O)[C@@H](CO)O2)cc1C(F)(F)F (stereo partly specified)
Reply: no

Task item: Kindly provide the recorded test outcome for the following compound: CC1(C)C(=O)[C@@H]2O[C@@H]2[C@@]2(C)C1C[C@@H](O)[C@]1(C)C2CC[C@@]2(C)[C@H](c3ccoc3)OC(=O)C3OC321 (stereo partly specified)
Reply: no

Task item: Kindly provide the recorded test outcome for the following compound: O=C1CCCN1CC#CCN1CCCC1
Reply: no

Task item: Kindly provide the recorded test outcome for the following compound: CC1C(c2ccccc2)N(C)C(c2ccccc2)CC1(O)c1ccc(F)cc1 (stereo unspecified)
Reply: no

Task item: Kindly provide the recorded test outcome for the following compound: NC1(C(=O)O)CC1
Reply: no

Task item: Kindly provide the recorded test outcome for the following compound: NC1(C(=O)O)CCCC1
Reply: no

Task item: Kindly provide the recorded test outcome for the following compound: NCCCCNCCCN
Reply: no

Task item: Kindly provide the recorded test outcome for the following compound: CCCCC(=O)O[C@]1(C(=O)CO)CCC2C3CCC4=CC(=O)CC[C@]4(C)C3[C@@H](O)C[C@@]21C (stereo partly specified)
Reply: no

Task item: Kindly provide the recorded test outcome for the following compound: COc1ccc2c(c1)OCC(Cc1ccc(OC)c(OC)c1)C2=O (stereo unspecified)
Reply: no

Task item: Kindly provide the recorded test outcome for the following compound: COc1cc2c(cc1OC)C1(O)C(=O)c3ccc(O)c(C(=O)O)c3OC1CO2 (stereo unspecified)
Reply: no

Task item: Kindly provide the recorded test outcome for the following compound: CN1CCC[C@@H]1CCO[C@](C)(c1ccccc1)c1ccc(Cl)cc1
Reply: no

Task item: Kindly provide the recorded test outcome for the following compound: C[C@]12C=CC(=O)C=C1CCC1C2[C@@H](O)C[C@@]2(C)C1CC[C@]2(O)C(=O)CO (stereo partly specified)
Reply: no

Task item: Kindly provide the recorded test outcome for the following compound: CCOC(=O)c1ccc(Oc2sccc2[N+](=O)[O-])cc1
Reply: yes

Task item: Kindly provide the recorded test outcome for the following compound: COC(=O)[C@H](c1ccccc1Cl)N1CCc2sccc2C1
Reply: no

Task item: Kindly provide the recorded test outcome for the following compound: Clc1ccccc1CN1CCc2sccc2C1
Reply: no

Task item: Kindly provide the recorded test outcome for the following compound: CC(=O)O[C@@H]1CC2C(C)(C)[C@@H](O)CC[C@]2(C)C2CC[C@@]3(C)[C@H](c4ccoc4)OC(=O)[C@H]4O[C@]43[C@@]21C (stereo partly specified)
Reply: no

Task item: Kindly provide the recorded test outcome for the following compound: Oc1c(Cl)cc(Cl)c(Cl)c1Cc1c(O)c(Cl)cc(Cl)c1Cl
Reply: yes

Task item: Kindly provide the recorded test outcome for the following compound: Nc1ccc(Oc2ccc(Cl)cc2C2CCCCC2)nc1
Reply: yes

Task item: Kindly provide the recorded test outcome for the following compound: COc1ccc2c(c1)OCC(Cc1ccc(O)c(OC)c1)C2=O (stereo unspecified)
Reply: no

Task item: Kindly provide the recorded test outcome for the following compound: COc1cc(C)c2c(=O)cc(-c3ccccc3)oc2c1
Reply: no

Task item: Kindly provide the recorded test outcome for the following compound: C/C(=N/NC(=S)NCC(C)(C)C)c1cc(F)cc(Cl)c1O
Reply: yes

Task item: Kindly provide the recorded test outcome for the following compound: Cc1c(S(=O)(=O)Nc2cccc([N+](=O)[O-])c2)sc2ccc(Cl)cc12
Reply: no

Task item: Kindly provide the recorded test outcome for the following compound: COP(=S)(OC)Oc1ccc(Sc2ccc(OP(=S)(OC)OC)cc2)cc1
Reply: no

Task item: Kindly provide the recorded test outcome for the following compound: COP(=S)(OC)Oc1ccc([N+](=O)[O-])cc1
Reply: no

Task item: Kindly provide the recorded test outcome for the following compound: NC1(C(=O)O)CCC1
Reply: no

Task item: Kindly provide the recorded test outcome for the following compound: CNCC[C@H](Oc1cccc2ccccc12)c1cccs1
Reply: no

Values compiled from PubChem BioAssay AID1159580.
